- Tested on: Echinochloa crus-galli
- protocolDetails: Herbicidal activity against Echinochloa crus-galli (barnyard grass) assessed as growth inhibition at 150 g/ha
- Type: functional, organism-based
Calls of active or inactive are those of the source. No cut-off for these calls is given here.
Outcomes: active, inactive

> print(dat)
                                linenotation  categorylabel
 1  CO/N=C(/C(=O)OC)c1ccccc1Cn1c(C)nn(-c2cc(NS(=O)(=O)c3ccccc3)c(Cl)cc2Cl)c1=O       inactive
 2  CO/C=C(/C(=O)OC)c1ccccc1Cn1c(C)nn(-c2cc(NS(C)(=O)=O)c(Cl)cc2F)c1=O       inactive
 3  CCS(=O)(=O)Nc1cc(-n2nc(C)n(Cc3ccccc3/C(=N\OC)C(=O)OC)c2=O)c(Cl)cc1Cl       inactive
 4  CO/N=C(/C(=O)OC)c1ccccc1Cn1c(C)nn(-c2cc(NS(C)(=O)=O)c(Cl)cc2F)c1=O       inactive
 5  CO/C=C(/C(=O)OC)c1ccccc1Cn1c(C)nn(-c2cc(NS(=O)(=O)c3ccccc3)c(Cl)cc2F)c1=O       inactive
 6  CCS(=O)(=O)Nc1cc(-n2nc(C)n(Cc3ccccc3/C(=C\OC)C(=O)OC)c2=O)c(F)cc1Cl       inactive
 7  CO/C=C(/C(=O)OC)c1ccccc1Cn1c(C)nn(-c2cc(NS(C)(=O)=O)c(Cl)cc2Cl)c1=O       inactive
 8  CO/C=C(/C(=O)OC)c1ccccc1Cn1c(C)nn(-c2cc(NS(=O)(=O)c3ccccc3)c(Cl)cc2Cl)c1=O       inactive
 9  COC(=O)N(OC)c1ccccc1Cn1c(C)nn(-c2cc(NS(=O)(=O)c3ccccc3)c(Cl)cc2Cl)c1=O         active
10  COC(=O)N(OC)c1ccccc1Cn1c(C)nn(-c2cc(NS(C)(=O)=O)c(Cl)cc2F)c1=O       inactive
11  CCS(=O)(=O)Nc1cc(-n2nc(C)n(Cc3ccccc3N(OC)C(=O)OC)c2=O)c(F)cc1Cl       inactive
12  CCS(=O)(=O)Nc1cc(-n2nc(C)n(Cc3ccccc3/C(=C\OC)C(=O)OC)c2=O)c(Cl)cc1Cl       inactive
13  CCS(=O)(=O)Nc1cc(-n2nc(C)n(Cc3ccccc3N(OC)C(=O)OC)c2=O)c(Cl)cc1Cl         active

Data credit: ChEMBL document CHEMBL3045146
